assaySystem: PARP1 WT (UniProt P09874 1-1014)
Sequence (P09874 whole entry): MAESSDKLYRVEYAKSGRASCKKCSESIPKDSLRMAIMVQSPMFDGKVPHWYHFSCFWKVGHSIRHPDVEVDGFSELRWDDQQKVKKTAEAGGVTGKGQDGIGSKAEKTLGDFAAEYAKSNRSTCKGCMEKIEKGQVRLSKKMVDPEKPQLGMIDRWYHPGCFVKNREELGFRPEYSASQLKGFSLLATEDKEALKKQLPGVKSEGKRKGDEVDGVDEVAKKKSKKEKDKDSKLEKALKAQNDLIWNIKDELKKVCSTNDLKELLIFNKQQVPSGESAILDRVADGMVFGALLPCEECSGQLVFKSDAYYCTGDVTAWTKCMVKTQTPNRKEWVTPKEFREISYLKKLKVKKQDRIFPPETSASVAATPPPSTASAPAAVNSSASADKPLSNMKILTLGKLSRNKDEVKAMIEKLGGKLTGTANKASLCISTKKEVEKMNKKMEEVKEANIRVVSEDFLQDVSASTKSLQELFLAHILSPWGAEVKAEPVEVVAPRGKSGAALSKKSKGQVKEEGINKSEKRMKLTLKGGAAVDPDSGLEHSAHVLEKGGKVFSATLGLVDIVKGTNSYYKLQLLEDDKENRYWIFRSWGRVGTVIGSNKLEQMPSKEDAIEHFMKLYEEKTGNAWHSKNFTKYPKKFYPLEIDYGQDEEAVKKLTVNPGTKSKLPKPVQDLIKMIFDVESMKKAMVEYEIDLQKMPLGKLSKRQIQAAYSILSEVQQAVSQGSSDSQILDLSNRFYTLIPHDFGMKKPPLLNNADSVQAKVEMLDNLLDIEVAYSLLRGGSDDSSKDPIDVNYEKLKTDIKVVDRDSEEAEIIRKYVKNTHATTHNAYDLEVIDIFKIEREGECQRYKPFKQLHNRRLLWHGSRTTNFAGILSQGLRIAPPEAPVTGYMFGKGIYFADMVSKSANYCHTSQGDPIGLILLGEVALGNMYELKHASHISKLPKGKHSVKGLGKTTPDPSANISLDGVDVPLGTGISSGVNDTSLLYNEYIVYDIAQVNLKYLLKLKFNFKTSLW
protocol: fluorescence polarization
measureName: pKd
Note on units: pKd is unitless, being -log10 of a concentration expressed in mol/L.

Record 18-bp DSB duplex (dsDNA) DNA 1: GGGTTGCGGCCGCTTGGG DNA 2: CCCAAGCGGCCGCAACCC , field pKd: 8.08

Entry source: paper PMC9391306
